// z-score lookup, one value per entry
# protocolSummary: A549 lung cancer cell viability effects, profiling panel, resazurin fluorescence, 24 h, PK04 Diversity Set (AID 1171); further: test concentration not given here
# appliedConditions: higher = more signal, called active from +8 up or from −8 down
Activity calls are given as the source filed them.

See these solved cases before continuing.
{"molecule": "C=C(C(=O)CC[C@H](OC(C)=O)c1ccc(OCCO)cc1)C(C)C", "z-score": "-0.358 (inactive)"}
{"molecule": "O=C(CCN1CCOCC1)c1cccc(O)c1", "z-score": "0.36 (inactive)"}
{"molecule": "CCC(CC)C(O)C1C=CC2C(=O)N(c3ccccc3)C(=O)C2N1Nc1ccc(C#N)cc1 (stereo not drawn)", "z-score": "0.158 (inactive)"}
{"molecule": "COC(=O)[C@]1(Cc2ccccc2N=[N+]=[N-])N=C(c2ccc(OCCCO)cc2)O[C@@H]1c1ccccc1N=[N+]=[N-]", "z-score": "-2.87 (inactive)"}
{"molecule": "CCCCC(O)C1C=CC2C(=O)N(C3CCCCC3)C(=O)C2N1Nc1ccc(OC)cc1 (stereo not drawn)", "z-score": "0.112 (inactive)"}
{"molecule": "CCCN1C(=O)[C@]2(COC(c3ccc(OCCCO)cc3)=N2)Cc2ccccc21", "z-score": "0.212 (inactive)"}
{"molecule": "COc1ccc(C#Cc2ccc3c(c2)[C@]2(C(=O)N3)[C@H](c3ccc(O)cc3)N3[C@H](c4ccccc4)[C@H](c4ccccc4)OC(=O)[C@H]3[C@@H]2C(=O)N2CCCCCCC2)cc1", "z-score": "-0.531 (inactive)"}
{"molecule": "COCCOC(=O)N1C(=O)[C@@]2(c3cc(C#CCC(C(=O)OC)C(=O)OC)ccc31)[C@H](c1ccc(O)cc1)N1[C@H](c3ccccc3)[C@H](c3ccccc3)OC(=O)[C@H]1[C@@H]2C(N)=O", "z-score": "-0.195 (inactive)"}
{"molecule": "C=CC[C@@]1(C(=O)NCC(O)CO)N=C(c2ccc(OCCCO)cc2)O[C@@H]1c1ccccc1N=[N+]=[N-] (stereo partly drawn)", "z-score": "0.695 (inactive)"}
{"molecule": "NC(=O)NCC#Cc1ccc2c(c1)[C@]1(C(=O)N2)[C@H](C(=O)N2CCCCCCC2)[C@H]2C(=O)O[C@H](c3ccccc3)[C@H](c3ccccc3)N2[C@@H]1c1ccc(OCCO)cc1", "z-score": "-0.316 (inactive)"}

Field request: z-score | item: COC(=O)c1ccc(OC)c(/C=C\CC(OC(C)=O)c2ccccc2)c1 (stereo not drawn)
0.519 (inactive)

Name the reported z-score value associated with the molecule COc1cc2c(cc1O)C(C)N(Cc1cccc(OC(F)(F)F)c1)CC2 (stereo not drawn)
0.849 (inactive)

Any idea what its z-score is? The molecule is Cc1ccc(S[C@]2(C(=O)NCCN3CCOCC3)CC(=O)N(Cc3cc(C(F)(F)F)cc(C(F)(F)F)c3)[C@@H]2c2ccc(CO)cc2I)cc1
0.36 (inactive)

---

# testedOn: Focal adhesion kinase 1 (Homo sapiens)
# protocolSummary: small-molecule microarray binders of FAK, primary screen, biochemical, 635/667 nm fluorescence, BSA, DTT (AID 1130);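 further: composite of spot emission at 667 nm and signal to noise over triplicate slides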
# appliedConditions: PTK2 binding, 635 nm fluorescence, higher = more signal
Let's look at some compounds and their measured composite z-score.

Below, each entry is followed by its recorded composite z-score result.
{"compound": "O=C1N(CCS(=O)(=O)c2ccccc2)Cc2ccccc2[C@H]2OC(c3ccc(OCCCO)cc3)=N[C@@]12CCS(=O)(=O)c1ccccc1", "measured": 0.772}
{"compound": "CC(=CC1CCCCC1)[C@@H](NC(=O)c1ccc(C(F)(F)F)cc1)c1ccc(-c2ccccc2)cc1", "measured": -0.708}
{"compound": "CCOC(=O)C1=CCC(c2ccc([N+](=O)[O-])cc2)N(S(=O)(=O)c2ccc(C)cc2)C1 (configuration not stated)", "measured": 0.801}
{"compound": "C=C(CCCC)/C(=C/C[C@H](OC(C)=O)c1ccc(CO)o1)c1cnc2ccccc2c1", "measured": -0.0622}
{"compound": "O=C1OCCC=C[C@H]2OC34C=CCN(Cc5ccccc5)C(=O)[C@H]3N(CCCCCCO)C(=O)[C@@H]4C12 (some centres not stated)", "measured": -0.574}

Could you share which composite z-score value was measured for C[C@]1(C(=O)NCc2ccccc2)c2ccccc2C(=O)N(Cc2cc(F)cc(C(F)(F)F)c2)[C@H]1c1ccc(CO)cc1 ?
-0.349

State the recorded composite z-score for this entry: COCCOC(=O)N1C(=O)[C@@]2(c3cc(C#CCC(C(=O)OC)C(=O)OC)ccc31)[C@H](C(=O)N1CCCCCCC1)[C@H]1C(=O)O[C@H](c3ccccc3)[C@H](c3ccccc3)N1[C@@H]2c1ccc(OCCO)cc1
1.97
